Entries with reported IC50 on DGKα (Homo sapiens (Human))
Sequence (P23743 whole entry): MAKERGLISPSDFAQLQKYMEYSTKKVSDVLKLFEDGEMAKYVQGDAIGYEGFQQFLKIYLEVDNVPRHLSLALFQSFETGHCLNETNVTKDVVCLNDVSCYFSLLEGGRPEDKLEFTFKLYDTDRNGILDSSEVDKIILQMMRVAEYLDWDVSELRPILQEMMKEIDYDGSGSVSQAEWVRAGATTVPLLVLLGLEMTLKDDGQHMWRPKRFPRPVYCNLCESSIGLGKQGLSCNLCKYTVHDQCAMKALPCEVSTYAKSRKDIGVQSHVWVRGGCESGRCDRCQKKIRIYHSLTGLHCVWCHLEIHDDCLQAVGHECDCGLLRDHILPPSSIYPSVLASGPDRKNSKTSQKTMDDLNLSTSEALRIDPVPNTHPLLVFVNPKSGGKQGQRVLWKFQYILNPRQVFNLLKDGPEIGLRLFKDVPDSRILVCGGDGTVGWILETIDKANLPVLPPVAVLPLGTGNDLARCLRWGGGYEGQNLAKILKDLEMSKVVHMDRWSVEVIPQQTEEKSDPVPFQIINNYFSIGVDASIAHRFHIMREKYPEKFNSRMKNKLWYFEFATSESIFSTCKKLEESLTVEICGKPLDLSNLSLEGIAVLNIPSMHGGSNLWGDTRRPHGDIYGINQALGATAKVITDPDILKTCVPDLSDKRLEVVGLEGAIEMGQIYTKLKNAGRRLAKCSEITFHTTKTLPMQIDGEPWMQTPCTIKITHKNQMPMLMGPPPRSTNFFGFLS

Record excerpt, results attached:
compound | IC50
CC[C@H]1CN(C(C)c2ccc3nccnc3c2)[C@H](CC)CN1c1cc(=O)n(CC)c2cn(CC#N)nc12 (stereo partly drawn) | 4.2 µM
CC[C@@H]1CN(c2c(C#N)c(=O)[nH]c3cn(CC#N)nc23)[C@@H](C)CN1C(C)c1ccc2nccnc2c1 (single isomer, unassigned) [Compound A200b] | > 10 µM

Consider the additional compound presented here.
Input line: Query for DGKα (Homo sapiens (Human)): what IC50 does the record show for CC[C@H]1CN(C(C)c2cnc(C)cc2C(F)(F)F)[C@H](CC)CN1c1cc(=O)n(C)c2cn(CC#N)nc12 (stereo partly drawn) ?
Output line: > 10 µM
